Tested on: human Factor XI mRNA
Assay: Antisense inhibition in HepG2 cells by microwalk gapmers, 75 nM, lipofectin (Example 3)
Type: cell-based
Conditions: HepG2 cells, 75 nM, oligonucleotides targeted to nucleobases 1062 to 1091 of SEQ ID NO: 1
In the oligonucleotide strings, read from the 5' end, every base follows the letter of its sugar. An asterisk marks phosphorothioate; unmarked linkages are phosphodiester. Other units and linkages are bracketed, terminal groups are in braces. A string of capitals states the bases alone. e = 2'-O-(2-methoxyethyl) (MOE); [5mC] = 5-methylcytosine; d = 2'-deoxy (DNA)
measure-name: % inhibition of human Factor XI mRNA levels (%)

{"substance": "416846 (antisense eT*eT*e[5mC]*eT*eT*dT*dG*dA*dG*dA*dT*dT*d[5mC]*dT*dT*eT*eG*eG*eG*e[5mC]) [compound 416846]", "tested-target": "human Factor XI mRNA", "measurement-unit": "%", "test-value": 72}
{"substance": "416845 (antisense eT*e[5mC]*eT*eT*eT*dG*dA*dG*dA*dT*dT*d[5mC]*dT*dT*dT*eG*eG*eG*e[5mC]*e[5mC]) [compound 416845]", "tested-target": "human Factor XI mRNA", "measurement-unit": "%", "test-value": 86}
{"substance": "416996 (antisense eT*eT*dT*d[5mC]*dT*dT*dT*dG*dA*dG*dA*dT*dT*d[5mC]*dT*eT*eT*eG*eG*eG) [compound 416996]", "tested-target": "human Factor XI mRNA", "measurement-unit": "%", "test-value": 22}
{"substance": "416992 (antisense eT*eT*dT*dG*dA*dG*dA*dT*dT*d[5mC]*dT*dT*dT*dG*dG*eG*e[5mC]*e[5mC]*eA*eT) [compound 416992]", "tested-target": "human Factor XI mRNA", "measurement-unit": "%", "test-value": 84}
{"substance": "416844 (antisense e[5mC]*eT*eT*eT*eG*dA*dG*dA*dT*dT*d[5mC]*dT*dT*dT*dG*eG*eG*e[5mC]*e[5mC]*eA) [compound 416844]", "tested-target": "human Factor XI mRNA", "measurement-unit": "%", "test-value": 90}
{"substance": "416847 (antisense eT*eT*eT*e[5mC]*eT*dT*dT*dG*dA*dG*dA*dT*dT*d[5mC]*dT*eT*eT*eG*eG*eG) [compound 416847]", "tested-target": "human Factor XI mRNA", "measurement-unit": "%", "test-value": 50}
{"substance": "416841 (antisense eG*eA*eG*eA*eT*dT*d[5mC]*dT*dT*dT*dG*dG*dG*d[5mC]*d[5mC]*eA*eT*eT*e[5mC]*e[5mC]) [compound 416841]", "tested-target": "human Factor XI mRNA", "measurement-unit": "%", "test-value": 87}
{"substance": "416910 (antisense eG*eA*eT*dT*d[5mC]*dT*dT*dT*dG*dG*dG*d[5mC]*d[5mC]*dA*dT*dT*d[5mC]*e[5mC]*eT*eG) [compound 416910]", "tested-target": "human Factor XI mRNA", "measurement-unit": "%", "test-value": 90}
{"substance": "416919 (antisense eT*eT*eT*d[5mC]*dT*dT*dT*dG*dA*dG*dA*dT*dT*d[5mC]*dT*dT*dT*eG*eG*eG) [compound 416919]", "tested-target": "human Factor XI mRNA", "measurement-unit": "%", "test-value": 27}
{"substance": "416918 (antisense eT*eT*e[5mC]*dT*dT*dT*dG*dA*dG*dA*dT*dT*d[5mC]*dT*dT*dT*dG*eG*eG*e[5mC]) [compound 416918]", "tested-target": "human Factor XI mRNA", "measurement-unit": "%", "test-value": 63}
{"substance": "416991 (antisense eT*eT*dG*dA*dG*dA*dT*dT*d[5mC]*dT*dT*dT*dG*dG*dG*e[5mC]*e[5mC]*eA*eT*eT) [compound 416991]", "tested-target": "human Factor XI mRNA", "measurement-unit": "%", "test-value": 87}
{"substance": "416916 (antisense e[5mC]*eT*eT*dT*dG*dA*dG*dA*dT*dT*d[5mC]*dT*dT*dT*dG*dG*dG*e[5mC]*e[5mC]*eA) [compound 416916]", "tested-target": "human Factor XI mRNA", "measurement-unit": "%", "test-value": 91}

----------
System: human Factor XI mRNA
Test: Dose-dependent inhibition in HepG2 cells, lipofectin (Example 4)
Type: cell-based
Details: 9.375 nM, 16 hours
In the oligonucleotide strings, read from the 5' end, every base follows the letter of its sugar. An asterisk marks phosphorothioate; unmarked linkages are phosphodiester. Other units and linkages are bracketed, terminal groups are in braces. A string of capitals states the bases alone. e = 2'-O-(2-methoxyethyl) (MOE); [5mC] = 5-methylcytosine; d = 2'-deoxy (DNA)
Classify as follows. Reported percent inhibition of Factor XI mRNA, relative to untreated control cells greater than or equal to 30%: Condition met. Reported percent inhibition of Factor XI mRNA, relative to untreated control cells below: Condition not met.

{"substance": "416908 (antisense eG*e[5mC]*eA*dA*d[5mC]*d[5mC]*dG*dG*dG*dA*dT*dG*dA*dT*dG*dA*dG*eT*eG*e[5mC]) [compound 416908]", "answer-label": "Condition met"}
{"substance": "416931 (antisense eG*eG*e[5mC]*dA*dT*dT*dG*dG*dT*dG*d[5mC]*dA*d[5mC]*dA*dG*dT*dT*eT*e[5mC]*eT) [compound 416931]", "answer-label": "Condition met"}
{"substance": "417003 (antisense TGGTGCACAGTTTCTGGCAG; 2-13-5 gapmer, wing sugar chemistry not given here, further chemistry not given here) [compound 417003]", "answer-label": "Condition not met"}
{"substance": "416827 (antisense eT*eA*eT*eG*e[5mC]*d[5mC]*d[5mC]*dT*dT*d[5mC]*dA*dT*dG*dT*d[5mC]*eT*eA*eG*eG*eT) [compound 416827]", "answer-label": "Condition met"}
{"substance": "416924 (antisense eG*eT*eG*d[5mC]*dA*d[5mC]*dA*dG*dT*dT*dT*d[5mC]*dT*dG*dG*d[5mC]*dA*eG*eG*e[5mC]) [compound 416924]", "answer-label": "Condition not met"}
{"substance": "416989 (antisense eG*eA*dG*dA*dT*dT*d[5mC]*dT*dT*dT*dG*dG*dG*d[5mC]*d[5mC]*eA*eT*eT*e[5mC]*e[5mC]) [compound 416989]", "answer-label": "Condition not met"}

----------
Test: Tolerability in Sprague-Dawley rats: body and organ weights (Example 23)
Format: in vivo
Details: 50 mg/kg s.c. twice per week for 6 weeks, percentage of the body weight

{"sequence-record": "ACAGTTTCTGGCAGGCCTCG (antisense; all C 5-methyl, all phosphorothioate, sugars by position not given here; MOE gapmer, 5-10-5) [ISIS 412223, 5-10-5 MOE gapmer]", "Spleen weight [%]": 0.5}
{"sequence-record": "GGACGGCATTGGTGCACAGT (antisense; all C 5-methyl, all phosphorothioate, sugars by position not given here; MOE gapmer, 5-10-5) [ISIS 413482, 5-10-5 MOE gapmer]", "Spleen weight [%]": 0.6}
{"sequence-record": "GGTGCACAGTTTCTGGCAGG (all C 5-methyl, all phosphorothioate, sugars by position not given here; MOE gapmer) [ISIS 413481, 5-10-5 MOE gapmer]", "Spleen weight [%]": 0.3}
{"sequence-record": "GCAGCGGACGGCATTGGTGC (antisense; all C 5-methyl, all phosphorothioate, sugars by position not given here; MOE gapmer, 5-10-5) [ISIS 412225, 5-10-5 MOE gapmer]", "Spleen weight [%]": 0.5}
{"sequence-record": "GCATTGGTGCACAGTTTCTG (antisense; all C 5-methyl, all phosphorothioate, sugars by position not given here; MOE gapmer, 5-10-5) [ISIS 412224, 5-10-5 MOE gapmer]", "Spleen weight [%]": 0.5}

----------
Items are presented alongside their recorded urine protein/creatinine ratio, Before.
Test: Tolerability in Sprague-Dawley rats: kidney function (Example 19)
Type: in vivo
Conditions: Sprague Dawley rats, before antisense oligonucleotide treatment

{"substance": "416999 (antisense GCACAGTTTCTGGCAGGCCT; 2-13-5 gapmer, wing sugar chemistry not given here, further chemistry not given here) [compound 416999]", "urine protein/creatinine ratio, Before": 1.3}
{"substance": "416864 (antisense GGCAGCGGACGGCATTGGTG; 5-10-5 gapmer, wing sugar chemistry not given here, further chemistry not given here) [compound 416864]", "urine protein/creatinine ratio, Before": 1.2}
{"substance": "416858 (antisense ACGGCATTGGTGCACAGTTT; 5-10-5 gapmer, wing sugar chemistry not given here, further chemistry not given here) [compound 416858]", "urine protein/creatinine ratio, Before": 0.9}

----------
System: human Factor XI mRNA
Experiment: Dose-dependent inhibition in HepG2 cells, electroporation (Example 5)
Assay type: cell-based
Conditions: 2500 nM, approx. 16 h, relative to untreated control cells
measure-name: percent inhibition of human Factor XI mRNA

{"substance": "416999 (antisense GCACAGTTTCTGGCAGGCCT; 2-13-5 gapmer, wing sugar chemistry not given here, further chemistry not given here) [compound 416999]", "test-value": "89%"}
{"substance": "416858 (antisense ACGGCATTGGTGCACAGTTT; 5-10-5 gapmer, wing sugar chemistry not given here, further chemistry not given here) [compound 416858]", "test-value": "87%"}
{"substance": "416826 (antisense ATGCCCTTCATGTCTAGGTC; 5-10-5 gapmer, wing sugar chemistry not given here, further chemistry not given here) [compound 416826]", "test-value": "89%"}
